assay: Pharmacokinetical investigations after intravenous or oral administration; assay type: in vivo; settings: plasma, po; male Wistar rat, 3 mg/kg p.o., solution in 10% ethanol, 40% PEG 400, 50% water, 5 ml/kg; read-out: F (bioavailability)
measure: bioavailability (%)

chemical-string	experimental-result
N#CC1(C(=O)Nc2cc(F)cc(NS(=O)(=O)c3ccc(-c4noc(-c5cccc(N)n5)n4)cc3)c2)CC1	55.3

----------
Test: Anti-HCMV cytopathogenicity test, cytostatic effect on uninfected cells
Assay type: cell-based
Details: human, NHDF cells (human prepuce fibroblasts), 6 days incubation, visual assessment
Procedure: Anti-HCMV (Anti-Human Cytomegalovirus) Cytopathogenicity Tests The test compounds are employed as 50 millimolar (mM) solutions in dimethyl sulfoxide (DMSO). Ganciclovir® serves as reference compound. […] The plates are then assessed visually using an overhead microscope (plaque multiplier from Technomara). […]

compound	units-symbol	CC50 at 6 days
N#CC1(C(=O)Nc2cc(F)cc(NS(=O)(=O)c3ccc(-c4noc(-c5cccc(N)n5)n4)cc3)c2)CC1	µM	71
Cl.N#CC1(C(=O)Nc2cccc(NS(=O)(=O)c3ccc(C#Cc4cccc(N)n4)cc3)c2)CC1 [Example 4, Hydrochloride]	µM	47
CC(=O)Nc1cccc(-c2nc(-c3ccc(S(=O)(=O)Nc4cc(F)cc(NC(=O)C5(C#N)CC5)c4)cc3)no2)n1	µM	71
N#CC1(C(=O)Nc2cccc(NS(=O)(=O)c3ccc(-c4noc(-c5cccc(N)n5)n4)cc3)c2)CC1	µM	141
Cc1c(NC(=O)C2(C#N)CC2)cccc1NS(=O)(=O)c1ccc(-c2noc(-c3cccc(N)n3)n2)cc1	µM	102
